Compiled notes: published IC50 values involving UniProtKB P29597.

// below: answered compounds
C=CC(=O)Nc1cc(Nc2ncc(Cl)c(O[C@@H]3CO[C@H]4[C@@H]3OC[C@H]4OC(C)C)n2)ccc1N(C)CCN(C)C
4.42 µM
NC(=O)c1cnc(Nc2ccc3c(c2)NCC(O)CO3)nc1NC1CCCCC1 (stereo not shown)
< 0.01 µM
CCC(CC)n1cc(-c2nc(-c3cnn([C@@H](C)[C@@H](C)O)c3)cn3nccc23)cn1 (single isomer, unassigned)
0.01 to 0.1 µM

Dear colleague, I am looking for the recorded IC50 of the following compound: N#CCCN1[C@@H]2CC[C@H]1C[C@H](Nc1nc(Nc3ncc(C#N)s3)cc3ncccc13)C2
0.00615 µM

Dear colleague, I am looking for the recorded IC50 of the following compound: Cc1cc(-c2cc3nccn3c(-c3cnn(C(CC#N)C4CC4)c3)n2)ccn1 (stereo not shown)
0.01 to 0.1 µM

Dear colleague, I am looking for the recorded IC50 of the following compound: C=CCn1nc(C(=O)NCCC(F)(F)F)c2c1CCN(c1ncnc3[nH]ccc13)C2
0.5 to 2 µM

Dear colleague, I am looking for the recorded IC50 of the following compound: Cc1cnc2nc1NCCCCCNC(=O)c1ccc(cc1[N+](=O)[O-])-c1cnc(F)c(c1)N2
1 to 10 µM

Dear colleague, I am looking for the recorded IC50 of the following compound: Cn1cc(-c2cc3nccn3c(-c3ccn(C(CCF)C4CC4)c3)n2)cn1 (stereo not shown)
< 0.01 µM

Dear colleague, I am looking for the recorded IC50 of the following compound: Nc1cc2ccc1-c1ccnc(n1)Nc1ccc(OCc3cccc4c3OCC4)c(c1)COCCCCNC2=O
> 10 µM

Dear colleague, I am looking for the recorded IC50 of the following compound: Cn1cc(-c2cc3nccn3c(-c3cnn(C4(CC#N)CN(CCCF)C4)c3)n2)cn1
< 0.01 µM

Dear colleague, I am looking for the recorded IC50 of the following compound: N#CCC(=O)N1CCC[C@@H](Nc2c(-c3nc(C(N)=O)co3)cnc3[nH]ccc23)C1
0.01 to 0.1 µM

Dear colleague, I am looking for the recorded IC50 of the following compound: COc1cc2ccc1C(=O)NCCCCCNc1nc(ncc1C)Nc1cc-2cnc1F
> 10 µM

Dear colleague, I am looking for the recorded IC50 of the following compound: O=C(NCCS(=O)(=O)N1CCC1)c1noc2c1CN(c1ncnc3[nH]ccc13)CC2
> 2 µM

Dear colleague, I am looking for the recorded IC50 of the following compound: Cc1nn(C(CC#N)C2CCCC2)cc1-c1nc(-c2ccc(N3CCOCC3)cc2)cc2nccn12 (stereo not shown)
< 0.01 µM

Dear colleague, I am looking for the recorded IC50 of the following compound: O=C(Nc1nc2cccc([C@@H]3CCC4(C3)CN(C(=O)[C@@H]3CC3(F)F)C4)n2n1)C1CC1
0.404 µM

Dear colleague, I am looking for the recorded IC50 of the following compound: Nc1cc2ccc1-c1ccnc(n1)Nc1ccc(OC3CCCC3)c(c1)COCCCCNC2=O
1 to 10 µM
